Data provenance: patent US20200148774A1

Experimental target: T1, recombinant cynomolgus CLL-1 extracellular domain (ECD, amino acids 65-265) fused to an N-terminal Flag (cynomolgus monkey)
T1 construct: Construct stated for the immunogen; also called CynoCLL-1 Flag; cynoCLL-1
T1 chain: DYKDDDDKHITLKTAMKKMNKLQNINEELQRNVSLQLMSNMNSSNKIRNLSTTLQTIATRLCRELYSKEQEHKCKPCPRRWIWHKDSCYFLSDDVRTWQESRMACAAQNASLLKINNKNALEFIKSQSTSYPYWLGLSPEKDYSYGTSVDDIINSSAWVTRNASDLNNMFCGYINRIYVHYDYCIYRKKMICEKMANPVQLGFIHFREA
Procedure summary: SPR (Biacore T200), IgG captured by anti-human Fc, CLL-1 as analyte
Measured pKd by item
Reminder that pKd is minus the log10 of a molar concentration.

The examples below pair each entry with its known result.
1. 21C9.L2H3 (antibody, V domains shown, humanized, assessed in the form of an IgG; also called humanized 21C9.L2H3; h21C9) VH: EVQLVQSGAEVKKPGASVKVSCKASGYTFTDYYLDWVRQAPGQGLEWIGRVNPYNGGTIYNQKFKGRVTLTRDTSTSTAYLELSSLRSEDTAVYYCARDHYRYDPLLDYWGQGTLVTVSS VL: DIQMTQSPSSLSASVGDRVTITCKASQDVSTAVAWFQQKPGKAPKLLIYSPSYRYTGVPSRFSGSGSGTDFTLTISSLQPEDFATYYCQQLYSTPYTFGQGTKVEIK = 8.03
2. 21C9.L2H3A54 (antibody, V domains shown) VH: EVQLVQSGAEVKKPGASVKVSCKASGYTFTDYYLDWVRQAPGQGLEWIGRVNPYAGGTIYNQKFKGRVTLTRDTSTSTAYLELSSLRSEDTAVYYCARDHYRYDPLLDYWGQGTLVTVSS VL: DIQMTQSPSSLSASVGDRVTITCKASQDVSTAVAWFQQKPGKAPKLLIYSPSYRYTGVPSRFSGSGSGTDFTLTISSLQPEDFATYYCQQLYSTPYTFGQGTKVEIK = 4.32

Would you kindly look at the next entry?
For 6E7.L4H1e (antibody, V domains shown, humanized, assessed in the form of an IgG; also called humanized 6E7.L4H1e; h6E7) VH: EVQLVQSGAEVKKPGASVKVSCKASGYSFTDYYMHWVRQAPGQGLEWIGRINPYNGAAFYSQNFKDRVTLTVDTSTSTAYLELSSLRSEDTAVYYCAIERGADLEGYAMDYWGQGTLVTVSS VL: DIQMTQSPSSLSASVGDRVTITCRASQSVSTSSYNYMHWYQQKPGKPPKLLIKYASNLESGVPSRFSGSGSGTDFTLTISSLQPEDFATYYCQHSWEIPLTFGQGTKVEIK , what is its reported pKd? 8.65
